- measuredOn: CaBbc1
- assayRemarks: SPOT peptide array binding signal intensity (averaged, normalized) (arbitrary units (background-subtracted, floor 0; scale differs between SH3 domains)); higher = stronger binding of the SH3 domain to the peptide
Listing of entries alongside the reported SPOT peptide array binding signal intensity.
endpointName: SPOT peptide array binding signal intensity

1) TPEIPPPLPPKIMVH ... ≤ 0
2) VPKEPAPAPPPEPDM ... ≤ 0
3) HAPPLPPTAPPPPSL ... ≤ 0

Entry source: the supplement of paper PMC4466140
